biological target: BSA (bovine (from the name BSA), UniProt P02769 25-607); assay: fluorescence polarisation
Sequence (P02769 25-607): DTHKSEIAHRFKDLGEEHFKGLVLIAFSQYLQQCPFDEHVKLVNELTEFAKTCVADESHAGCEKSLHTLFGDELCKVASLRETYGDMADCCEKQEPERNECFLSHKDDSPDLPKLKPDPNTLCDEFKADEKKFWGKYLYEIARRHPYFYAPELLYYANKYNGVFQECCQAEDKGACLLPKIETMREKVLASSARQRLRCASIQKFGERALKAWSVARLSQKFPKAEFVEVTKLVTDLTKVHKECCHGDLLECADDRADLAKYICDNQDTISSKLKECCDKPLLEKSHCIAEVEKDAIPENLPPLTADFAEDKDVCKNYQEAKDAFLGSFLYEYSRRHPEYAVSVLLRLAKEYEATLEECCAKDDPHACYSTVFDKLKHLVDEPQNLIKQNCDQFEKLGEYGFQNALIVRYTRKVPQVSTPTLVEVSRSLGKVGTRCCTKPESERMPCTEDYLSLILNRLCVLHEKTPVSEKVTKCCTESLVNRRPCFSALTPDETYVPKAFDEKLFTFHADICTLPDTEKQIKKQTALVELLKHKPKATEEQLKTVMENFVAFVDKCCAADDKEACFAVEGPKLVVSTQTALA
Ends that are not written are not given here. * marks the point of attachment. FITC = O=C1OC2(c3ccc(O)cc3Oc3cc(O)ccc32)c2ccc(NC(=S)*)cc21; Ahx = NCCCCCC(=O)O
parameter: pKd
Just so you know, pKd here is -log10 of the concentration in molar units; reply with that number alone.

Give the measured pKd of {FITC-Ahx}-DDFPRYPVGKFFQYDTWR [FITC-E-peptide 103-120] . 4.89
